Biological target: BACE1 (Homo sapiens, UniProt P56817)
Sequence (P56817 46-501): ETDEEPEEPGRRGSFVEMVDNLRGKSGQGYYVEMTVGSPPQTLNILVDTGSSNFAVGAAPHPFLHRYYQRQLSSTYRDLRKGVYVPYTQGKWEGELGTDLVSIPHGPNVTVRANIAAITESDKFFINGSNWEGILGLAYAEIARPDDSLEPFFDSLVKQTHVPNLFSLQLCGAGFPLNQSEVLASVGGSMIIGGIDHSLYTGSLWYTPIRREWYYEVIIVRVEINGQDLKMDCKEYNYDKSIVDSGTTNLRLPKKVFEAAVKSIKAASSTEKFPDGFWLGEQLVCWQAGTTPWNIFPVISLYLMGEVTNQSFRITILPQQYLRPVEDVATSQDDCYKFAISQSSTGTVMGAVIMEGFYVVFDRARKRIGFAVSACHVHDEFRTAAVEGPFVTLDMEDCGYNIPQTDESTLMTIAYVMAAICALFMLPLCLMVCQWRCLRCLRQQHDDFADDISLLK
Assay: Cellular Abeta-lowering assay
Settings: HEK293 cells stably transfected with human APP wt (APP695), Aβ40 ELISA of supernatant after 18-20 hrs
Structures can show the parent of a compound that is named as a salt.
Reported log10 of IC50 values are given for each entry in this list.
Note: values are log10 of IC50 expressed in µM.

{"columns": ["compound", "result"],
 "data": [
  ["Cc1cc(C(=O)Nc2cccc(C3(C)COCC(N)=N3)c2)c(C)s1 (racemic)", -1.24]
]}

IN: Param item = C[C@@]1(c2cc(NC(=O)c3ccc(C#N)cn3)ccc2F)COCC(N)=N1 [Example 72, hydrochloride] ; retrieve measured log10 of IC50.
OUT: -2.52

IN: Which measured log10 of IC50 value corresponds to C[C@@]1(c2cc(NC(=O)c3ncc(Cl)cc3F)ccc2F)COCC(N)=N1 [Example 74, hydrochloride] ?
OUT: -2.40

IN: Need log10 of IC50, item "C[C@@]1(c2cc(NC(=O)c3ncoc3-c3ccccc3)ccc2F)COCC(N)=N1"
OUT: -0.12

IN: log10 of IC50 for "C[C@@]1(c2cc(NC(=O)c3ncc(F)cc3F)ccc2F)COCC(N)=N1" ?
OUT: -1.59

IN: Bench note: what log10 of IC50 did CC1(c2cccc(NC(=O)c3ccc(OCC(F)F)cn3)c2)COCC(N)=N1 (racemic) [Example 62, hydrochloride] show?
OUT: -0.57

IN: Bench note: what log10 of IC50 did CC1(c2cccc(NC(=O)c3cnccn3)c2)COCC(N)=N1 (racemic) [Example 25, hydrochloride] show?
OUT: -0.39

IN: Fill blank: measured log10 of IC50 of the compound CC1(c2cc(NC(=O)c3cc(-c4ccco4)on3)ccc2F)COCC(N)=N1 (racemic) is ____.
OUT: -0.96

###

Below is a list of entries, each paired with its recorded pKd value.
Molecular target: BACE2 (Homo sapiens)
Construct: BACE2 enzyme ectodomain (derived from plasmid “pET17b-T7-hu proBACE2”); T7 (N); made in house
Experiment: Assay A: binding studies using SPR based methods, immobilised BACE2
Conditions: CM5 chip, immobilised BACE2 enzyme ectodomain, acetate buffer pH 4.6, 4% DMSO
Counter-ions that a name gives are not always drawn.
Please treat pKd as minus the base-10 logarithm of the molar concentration.

Illustrative cases are given below, each with its answer.
{"columns": ["compound", "pKd"],
 "data": [
  ["CC1(C)OC[C@@](C)(c2cccc(NC(=O)c3ccc(Cl)cn3)c2)N=C1N", 8.70],
  ["COCC1(C(=O)Nc2ccc(F)c([C@]3(C)COCC(N)=N3)c2)CC1 [Example 86, formate]", 5.44],
  ["CC(F)C(=O)Nc1ccc(F)c([C@]2(C)COCC(N)=N2)c1 (mixture of isomers) [Example 87, formate]", 6.32],
  ["CC1(c2cccc(NC(=O)c3ccc(Cl)cc3Cl)c2)COCC(N)=N1 (racemic)", 6.42],
  ["Cc1cc(C(=O)Nc2cccc(C3(C)COCC(N)=N3)c2)c(C)s1 (racemic)", 7.20],
  ["C[C@@]1(c2cc(NC(=O)c3ccc(C#N)cn3)ccc2F)COCC(N)=N1 [Example 72, hydrochloride]", 7.60]
]}

IN: Entry C[C@@]1(c2cc(NC(=O)c3ncc(C#N)cc3Cl)ccc2F)COCC(N)=N1 [Example 67, hydrochloride] has what pKd?
OUT: 7.82

IN: Requested read-out: pKd. Entry: C[C@@]1(c2cc(NC(=O)c3ncc(Cl)cc3F)ccc2F)COCC(N)=N1 [Example 74, hydrochloride]
OUT: 8.70

###

Reported Kd values for a set of compounds
Biological target: BACE2 (Homo sapiens, UniProt Q9Y5Z0)
Construct: BACE2 enzyme ectodomain (derived from plasmid “pET17b-T7-hu proBACE2”); T7 (N); made in house
Sequence (Q9Y5Z0 63-473 limits assumed): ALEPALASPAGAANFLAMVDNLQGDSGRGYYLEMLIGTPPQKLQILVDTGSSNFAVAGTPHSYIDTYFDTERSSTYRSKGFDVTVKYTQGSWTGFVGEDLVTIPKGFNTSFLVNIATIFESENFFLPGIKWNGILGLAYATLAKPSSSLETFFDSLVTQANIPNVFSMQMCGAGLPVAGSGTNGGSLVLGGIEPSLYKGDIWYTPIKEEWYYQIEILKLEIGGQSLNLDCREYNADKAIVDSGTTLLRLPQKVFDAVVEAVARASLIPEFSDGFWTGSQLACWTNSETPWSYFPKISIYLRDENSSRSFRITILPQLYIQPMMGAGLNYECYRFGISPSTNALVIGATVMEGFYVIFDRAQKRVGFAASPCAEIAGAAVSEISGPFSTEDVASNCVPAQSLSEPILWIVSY
Assay: Assay A: binding studies using SPR based methods, immobilised BACE2
Settings: CM5 chip, immobilised BACE2 enzyme ectodomain, acetate buffer pH 4.6, 4% DMSO
Counter-ions that a name gives are not always drawn.
Record the value in nM, omitting the unit from your answer.

{"columns": ["compound", "result"],
 "data": [
  ["COCC(=O)Nc1ccc(F)c([C@]2(C)COCC(N)=N2)c1 [Example 84, formate]", 77],
  ["C[C@@]1(c2cc(NC(=O)C3CC(Cl)C3)ccc2F)COCC(N)=N1 (stereo partly shown)", 3600],
  ["C[C@@]1(c2cc(NC=O)ccc2F)COCC(N)=N1 [Example 97, formate]", 1760]
]}

IN: Need Kd of "C[C@@]1(c2cc(NC(=O)c3ncc(F)cc3F)ccc2F)COCC(N)=N1" , thanks.
OUT: 6

IN: # lookup: Kd of CCC(C)c1cc(Cl)cnc1C(=O)Nc1ccc(F)c([C@]2(C)COCC(N)=N2)c1 (mixture of isomers) [Example 71, hydrochloride]
OUT: 6000

IN: // query Kd value for entry C[C@@]1(c2cc(NC(=O)c3cnc(C(F)(F)F)cn3)ccc2F)COCC(N)=N1 [Example 81, formate]
OUT: 256

IN: Can you share its Kd? I mean this compound: CC1(c2cc(NC(=O)c3ccc(Cl)cn3)ccc2F)COCC(N)=N1 (racemic)
OUT: 8

IN: Find the recorded Kd belonging to CC1(c2cccc(NC(=O)c3ccc(OCC4CC4)cn3)c2)COCC(N)=N1 (racemic) [Example 60, hydrochloride] and report it.
OUT: 117

IN: Field request: Kd | item: C[C@@]1(c2cc(NC(=O)C(F)(F)C(F)F)ccc2F)COCC(N)=N1 [Example 83, formate]
OUT: 276

IN: Please report the recorded Kd for CC1(c2cccc(NC(=O)c3ccc(OCCF)cn3)c2)COCC(N)=N1 (racemic) [Example 61, hydrochloride] .
OUT: 4680

IN: Find the recorded Kd belonging to CC(F)(F)C(=O)Nc1ccc(F)c([C@]2(C)COCC(N)=N2)c1 [Example 90, formate] and report it.
OUT: 150

IN: // returns reported Kd for input "C[C@@]1(c2cc(NC(=O)c3ncoc3-c3ccccc3)ccc2F)COCC(N)=N1"
OUT: 3020

IN: May I ask what Kd has been recorded for Cc1nc(C(=O)Nc2cccc(C3(C)COCC(N)=N3)c2)cs1 (racemic) ?
OUT: 361

IN: What value of Kd has been recorded for this entry: CC1(c2cccc(NC(=O)c3ccc(OCC(F)(F)F)cn3)c2)COCC(N)=N1 (racemic) [Example 24, hydrochloride]
OUT: 5750

IN: GET /values?readout=Kd&item= C[C@@]1(c2cc(NC(=O)c3ccc(OC(F)F)cn3)ccc2F)COCC(N)=N1 [Example 73, hydrochloride]
OUT: 51

IN: // lookup Kd for CC1(c2cccc(NC(=O)c3ccn(CC(F)(F)F)n3)c2)COCC(N)=N1 (racemic)
OUT: 5400

IN: If you can, please state the reported Kd value of CCc1cc(Cl)cnc1C(=O)Nc1ccc(F)c([C@]2(C)COCC(N)=N2)c1 [Example 70, hydrochloride] .
OUT: 45

IN: For the compound C[C@@]1(c2cc(NC(=O)C(F)F)ccc2F)COCC(N)=N1 [Example 91, formate] , what Kd is on record?
OUT: 1140

IN: Quick one: Kd for CC1(c2cccc(NC(=O)c3ccc(Cl)cc3F)c2)COCC(N)=N1 (racemic) ?
OUT: 580

IN: Which Kd value belongs to C[C@@]1(c2cc(NC(=O)c3cnc(C(F)(F)F)cn3)ccc2F)COCC(N)=N1 [Example 82, formate] ?
OUT: 113

IN: Look at this compound and give its reported Kd. C[C@@]1(c2cc(NC(=O)C(CC3CCCO3)C(F)(F)F)ccc2F)COCC(N)=N1 (mixture of isomers) [Example 85, formate]
OUT: 6900

IN: What does the data say about its Kd? Entry: C[C@@]1(c2cc(NC(=O)C3CC3(F)F)ccc2F)COCC(N)=N1 (mixture of isomers)
OUT: 1220

IN: Item under review: CC(=O)Nc1ccc(F)c([C@]2(C)COCC(N)=N2)c1 [Example 93, formate] . Reported Kd?
OUT: 3850

IN: // Kd lookup, key: CC1(c2cccc(NC(=O)c3ccc(OCc4ccccc4)cn3)c2)COCC(N)=N1 (racemic) [Example 66, hydrochloride]
OUT: 159

IN: If you can, please state the reported Kd value of Cc1cnc(C(=O)Nc2cccc(C3(C)COCC(N)=N3)c2)cn1 (racemic) .
OUT: 1120

###

Molecular target: BACE1 (Homo sapiens, UniProt P56817)
Assay: Cellular Abeta-lowering assay
Settings: HEK293 cells stably transfected with human APP wt (APP695), Aβ40 ELISA of supernatant after 18-20 hrs
Where a name gives a salt, the structure may show the parent alone.
IC50 under 100 nM gets T, anything at or over 100 nM gets F.

Illustrative cases are given below, each with its answer.
{"columns": ["molecule", "cat"],
 "data": [
  ["CC1(c2cccc(NC(=O)c3ccc(OCC(F)(F)F)cn3)c2)COCC(N)=N1 (racemic) [Example 24, hydrochloride]", "F"],
  ["C[C@@]1(c2cc(NC(=O)c3ccn(C(F)F)n3)ccc2F)COCC(N)=N1", "T"]
]}

IN: Is 100 nM strictly greater than the molecule's reported IC50? molecule: "CC1(C)OC[C@@](C)(c2cccc(NC(=O)c3ccc(Cl)cn3)c2)N=C1N"
OUT: T

IN: Just wondering, is IC50 of "C[C@@]1(c2cc(NC(=O)c3ncc(Cl)cn3)ccc2F)COCC(N)=N1" below 100 nM?
OUT: T

Values from patent US20130196984A1
